Tested on: naturally aged C57BL6J mice
Experiment: Skin aging (dermal thickness, COL1A1 and SDF1 mRNA, hair loss) in naturally aged mice, Example 21-10, Table 25
Format: in vivo, mouse
Conditions: naturally aged mice; untreated aged = 100
Relative area of hair loss (%) for assorted compounds
MEASUREMENT NAME: Relative area of hair loss (%)

[[record]]
compound = "C[C@H]1[C@H](C)CC[C@]2(C(=O)O)CC[C@]3(C)C(=CC[C@@H]4[C@@]5(C)CC[C@H](O)C(C)(C)[C@@H]5CC[C@]43C)[C@H]12 [LX-2001, Ursolic acid]"
measurement_name = "Relative area of hair loss (%)"
result = "73 (±8.3) %"

[[record]]
compound = "Cc1cccc([C@H](C)c2cnc[nH]2)c1C [LX-6807, Dexmedetomidine]"
measurement_name = "Relative area of hair loss (%)"
result = "72 (±3.8) %"

[[record]]
compound = "CC1(C)CC[C@]2(NC(=O)C(C)(F)F)CC[C@]3(C)[C@H](C(=O)C=C4[C@@]5(C)C=C(C#N)C(=O)C(C)(C)[C@@H]5CC[C@]43C)[C@@H]2C1 [LX-2101, Omaveloxolone]"
measurement_name = "Relative area of hair loss (%)"
result = "82 (±8.9) %"

[[record]]
compound = "C#CC(=O)N1[C@@H](CCCC)Cc2cc(OC)ccc2[C@@H]1c1ccc(NC23CC4CC(CC(C4)C2)C3)cc1 [LX-5411]"
measurement_name = "Relative area of hair loss (%)"
result = "64 (±4.8) %"

[[record]]
compound = "C[C@H]1[C@H](C)CC[C@]2(C(=O)O)CC[C@]3(C)C(=CC[C@@H]4[C@@]5(C)C[C@@H](O)[C@H](O)C(C)(C)[C@@H]5CC[C@]43C)[C@H]12 [LX-2002, Corosolic acid]"
measurement_name = "Relative area of hair loss (%)"
result = "75 (±8.3) %"

[[record]]
compound = "C[C@@H]1CC[C@@]23C[C@H](O)C(=O)[C@@]2(O)[C@]1(C)[C@H](OC(=O)CCl)C[C@@H](C1=CCn2c(=O)n(-c4ccccc4)c(=O)n2C1)[C@@H]3C [LX-1801]"
measurement_name = "Relative area of hair loss (%)"
result = "82 (±6.6) %"

[[record]]
compound = "O=C(C(C[N+](=O)[O-])=NO)N1CCN(C(c2ccc(Cl)cc2)c2ccc(Cl)cc2)CC1 [LX-403]"
measurement_name = "Relative area of hair loss (%)"
result = "69 (±2.5) %"

[[record]]
compound = "CC1(C)C=C2[C@H]3CC[C@@H]4[C@@]5(C)CCC(=O)C(C)(C)[C@@H]5CC[C@@]4(C)[C@]3(C)CC[C@@]2(C(=O)O)CC1 [LX-2007, Moronic acid]"
measurement_name = "Relative area of hair loss (%)"
result = "86 (±5.5) %"

[[record]]
compound = "CC1(C)CC[C@]2(C(=O)O)CC[C@]3(C)C(=CC[C@@H]4[C@@]5(C)CC[C@H](O)C(C)(C)[C@@H]5CC[C@]43C)[C@@H]2C1 [LX-2003, Oleanolic acid]"
measurement_name = "Relative area of hair loss (%)"
result = "71 (±2.2) %"

[[record]]
compound = "C=C(C)[C@@H]1CC[C@]2(C(=O)O)CC[C@]3(C)[C@H](CC[C@@H]4[C@@]5(C)CC[C@H](O)C(C)(C)[C@@H]5CC[C@]43C)[C@@H]12 [LX-2005, Betulinic acid]"
measurement_name = "Relative area of hair loss (%)"
result = "80 (±4.9) %"

[[record]]
compound = "O=C1C2CCN(CC2)C1CNC(=O)C(F)(F)F (centres unmarked) [LX-5701]"
measurement_name = "Relative area of hair loss (%)"
result = "71 (±8.4) %"


Numbers sourced from patent US20260306460A1.
